Tested on: G. lamblia WB trophozoites
Assay: Parasite assay, CellTiter-Glo EC50 dose response, G. lamblia trophozoites
Format: cell-based, Giardia lamblia
Conditions: Giardia duodenalis; trophozoites, 48 h, minimum n = 3; read-out: G. lamblia EC50
Catalogue of compounds with associated pEC50
Scale note: pEC50 = -log10(concentration in M).

Below are worked cases with known answers.
* C[C@H](Cc1ccc(O)c(O)c1)[C@@H](C)Cc1ccc(O)c(O)c1 [Compound 1, nordihydroguairetic acid] | 4.44
* COc1cc2c(cc1O)C[C@@H](C)[C@@H](C)[C@@H]2c1ccc(O)cc1 | 3.73

Form field pEC50, entry C[C@H]1[C@H](c2ccc(O)c(O)c2)c2cc(O)c(O)cc2C[C@H]1C : 4.02
